tested on: SEM cells; experiment: cell viability relative to DMSO control; higher = less cytotoxic; settings: HPLM + 10% dialyzed FBS; 48 h; 0.569 µM
Below: a set of entries, each annotated with reported cell viability.
State just the number; it will be interpreted in %.

Here's what some known entries look like.
# value lookup — system SEM cells, readout cell viability, item Clc1ccccc1C(c1ccccc1)(c1ccccc1)n1ccnc1
112

Requested read-out cell viability, target or system SEM cells, entry Cc1c(C(=O)c2cccc3ccccc23)c2cccc3c2n1[C@H](CN1CCOCC1)CO3
97.9

API: value(readout= cell viability, system= SEM cells, query= CC(C)(O)C(=O)Nc1ccc([N+](=O)[O-])c(C(F)(F)F)c1 )
124

Form field - read-out: cell viability; system: SEM cells; submitted item: Cn1ccc2cc3c(cc21)CCN3C(=O)Nc1cccnc1
140

---
Quick check: cell viability on SEM cells, item Clc1ccc2ncc(-c3cccc(NC4CNC4)n3)n2c1 ?
115

----------
test system: NOMO1; assay: cell viability relative to DMSO control; higher = less cytotoxic; settings: HPLM + 10% dialyzed FBS; 48 h; 15.4 µM
READOUT LABEL: cell viability (%)
Numbers only; they are read as %.

Study these solved cases before continuing.
I'd like to know its cell viability. The molecule in question is OCCN(CCO)c1nc(N2CCCCC2)c2nc(N(CCO)CCO)nc(N3CCCCC3)c2n1
105

For the molecule shown here, CN(C(Cc1ccc(O[S+](=O)([O-])c2cccc3cnccc23)cc1)C(=O)N1CCN(c2ccccc2)CC1)[S+](=O)([O-])c1cccc2cnccc12 (stereo not drawn) , give the reported cell viability.
77

Continuing:
What value of cell viability has been recorded for this entry: CN(C)CCc1c[nH]c2ccc(C[S+](=O)([O-])N3CCCC3)cc12
96.2

----------
system: SEM cells; experiment: cell viability relative to DMSO control; higher = less cytotoxic; details: HPLM + 10% dialyzed FBS; 48 h; 0.0632 µM
Here, each record is paired with measured cell viability data.
Field format: number, assumed %, no unit text.

Some solved entries appear below for comparison.
I am curious: what cell viability value has been reported for COC(=O)N[C@H](C(=O)N1CCC[C@H]1c1ncc(-c2ccc(-c3ccc(-c4cnc([C@@H]5CCCN5C(=O)[C@@H](NC(=O)OC)C(C)C)[nH]4)cc3)cc2)[nH]1)C(C)C ?
129

Which measured cell viability value corresponds to COC(=O)C/1=C(C)/N/C(=C(\C1C2=CC(=CC=C2)[N+]([O-])=O)C(=O)OCCCN3CCC(CC3)(C4=CC=CC=C4)C5=CC=CC=C5)C (configuration not stated) ?
95.5

# get_value(readout='cell viability', item= C=CC(=O)Nc1ccc2ncnc(Nc3ccc(OCc4cccc(F)c4)c(Cl)c3)c2c1 )
103

Which cell viability is reported for this compound? Cc1ccc([S+](=O)([O-])Nc2cc(Cl)ccc2C(=O)Nc2nc(-c3ccccc3)cs2)cc1
121

Find the recorded cell viability belonging to CCCCc1nc2cc(/C=C/C(=O)NO)ccc2n1CCN(CC)CC and report it.
108

Continuing:
Would you kindly share the measured cell viability for CCOC(=O)O[C@]1(C(=O)OCCl)CC[C@H]2[C@@H]3CCC4=CC(=O)C=C[C@]4(C)[C@H]3[C@@H](O)C[C@@]21C ?
101

Looking for the measured cell viability of CCc1cc(-c2n[nH]c(C)c2-c2ccc3c(c2)OCCO3)c(O)cc1O , can you help?
128
